parameter_measured: melting point

Known results for compounds:
Would you mind telling me what melting point value was observed for Nc1c([N+](=O)[O-])sc2c(F)cccc12 ?
238 to 240 °C

Would you mind telling me what melting point value was observed for CCCc1nc2c(N)nc3cc(OCCCO)ccc3c2s1 ?
157 to 160 °C

Would you mind telling me what melting point value was observed for CCOC(=O)CCCc1oc(-n2ccnc2C)nc1-c1ccc(Cl)cc1 ?
72 to 73 °C

Would you mind telling me what melting point value was observed for CS(=O)(=O)Nc1c(C(=O)c2ccccc2)[nH]c2cc(F)ccc12 ?
166 to 168 °C

Would you mind telling me what melting point value was observed for CCc1sc2c(c1S(=O)(=O)c1ccc(O)cc1)CN(Cc1ccccc1Cl)CC2 ?
176 °C

***
Would you mind telling me what melting point value was observed for CC1Cc2c(c(S(N)(=O)=O)nn2C)C(=O)O1 (configuration not stated) ?
142 to 144 °C

Would you mind telling me what melting point value was observed for Cc1ccc2nc(Cl)nc(NN)c2c1 ?
> 280 °C

----------
# melting point annotations

Known results for molecules:
Would you mind telling me what melting point value was observed for Cc1nnc(Sc2nc3ccc(Cl)cc3nc2C)s1 ?
189 to 190 °C

Would you mind telling me what melting point value was observed for O=C(NCC12CC3CC(CC(C3)C1)C2)c1c(Cl)ccc2nc(N3CCC(n4cn[nH]c4=O)CC3)ccc12 ?
294 to 295 °C

Would you mind telling me what melting point value was observed for C=CCN1CCc2c([nH]c3ccccc23)C(C(=O)OC)C1 (centres undefined) ?
105 to 108 °C

Would you mind telling me what melting point value was observed for CCOC(=O)COc1ccc2c(=O)c3c(oc2c1)C(=Cc1ccccc1)CC3 ?
152 to 154 °C

Would you mind telling me what melting point value was observed for Cc1ccccc1Nc1c(C(=O)C(C)C)cnc2c(CO)cccc12 ?
116 to 118 °C

Would you mind telling me what melting point value was observed for CC(C)c1ccc(S(=O)(=O)c2ccccc2)cc1S(=O)(=O)NC1CCN(C(=O)c2ccccc2F)CC1 ?
210 to 212 °C

Would you mind telling me what melting point value was observed for CS(=O)c1nccc(N)n1 (centres undefined) ?
158 to 159 °C

Would you mind telling me what melting point value was observed for C#CCN1CC(=O)N(c2cc(Cl)ccc2C)C1=S ?
131 to 134 °C

Would you mind telling me what melting point value was observed for NC(=O)c1c(Cl)c(-c2ccccc2)n2c1CN(C(=O)c1ccco1)CC2 ?
238 to 239 °C

Would you mind telling me what melting point value was observed for C#CCOCCn1cnc2c(N)nc3ccccc3c21 ?
225 to 227 °C

***
Would you mind telling me what melting point value was observed for O=C(Cl)c1cc(C(=O)Cl)c(C#Cc2ccccc2)cc1C#Cc1ccccc1 ?
157 to 160 °C

Would you mind telling me what melting point value was observed for CCCCCCOc1ccc(C(=O)Cl)cc1 ?
90 to 93 °C

----------
parameter_measured: melting point

Would you mind telling me what melting point value was observed for CC(C)(C(=O)O)C1(c2ccc(Cl)cc2)CCC1 ?
95 to 110 °C

Would you mind telling me what melting point value was observed for Cn1c(=O)[nH]c(=O)c2c1ncn2Cc1noc(C2CCCCC2)n1 ?
245 to 248 °C

Would you mind telling me what melting point value was observed for Cc1nn2c(C=O)c(-c3ccccc3)nc2s1 ?
152 to 153 °C

Would you mind telling me what melting point value was observed for O=[N+]([O-])c1cc(F)c(Cl)c(Br)c1Cl ?
51 to 53.5 °C

Would you mind telling me what melting point value was observed for CCC1c2ccc(C#N)n2-c2ccc(F)cc2N1S(=O)(=O)c1ccc(OC)c(C)c1 (stereo unspecified) ?
196 to 199 °C

Would you mind telling me what melting point value was observed for CC(=O)C=Cc1ccccc1O ?
136 to 137 °C

Would you mind telling me what melting point value was observed for Cc1c(Cl)c(Cl)c(Cl)c(Cl)c1C=O ?
187 to 194 °C

Would you mind telling me what melting point value was observed for COc1cc(C2NCCS2)ccc1O (stereo unspecified) ?
158 to 161 °C

***
Would you mind telling me what melting point value was observed for CN(c1cc(OC(F)(F)F)cc2cc(C(N)=O)[nH]c12)S(=O)(=O)c1cccs1 ?
228 to 229 °C

Would you mind telling me what melting point value was observed for CC1(C)CCC(C)(C)c2cc(-c3cc(-c4ccc(C(=O)O)cc4)ccc3OCCCN)ccc21 ?
243 °C

Would you mind telling me what melting point value was observed for CCOc1ccc(C=C(CS)C(=O)NCCC(=O)O)cc1 ?
148 °C

Would you mind telling me what melting point value was observed for Clc1cc(-n2cncn2)ncn1 ?
93 to 97 °C

Would you mind telling me what melting point value was observed for C=C(CC1(C)C(=O)CCC1=O)C1=CCCc2cc(OC)ccc21 ?
81 to 82 °C

Would you mind telling me what melting point value was observed for CNC(=O)NCCCn1cc(Cn2ccnc2)c2ccccc21 ?
123 to 124 °C

Would you mind telling me what melting point value was observed for Clc1ccc2c(NCc3ccccc3)c3cccn3nc2c1 ?
184 to 186 °C

Would you mind telling me what melting point value was observed for CCCCn1c(=O)c(C(=O)OCC)c(N)c2cnc(C)nc21 ?
214 to 216 °C

Would you mind telling me what melting point value was observed for CCOC(=O)c1cc(N2C(=O)C3=C(CCCC3)C2=O)ccc1O ?
90 °C

Would you mind telling me what melting point value was observed for CN1CCN(c2c(Cl)cc3c(=O)c(C(=O)O)cn(C4CC4)c3c2Cl)CC1 ?
> 300 °C

Would you mind telling me what melting point value was observed for CCCCCCCCCCCCCCCCCCOc1cc(OCCCCc2ccc3cc(O)c(O)cc3c2)cc(N(CC(=O)O)CC(=O)O)c1 ?
153 to 155 °C

Would you mind telling me what melting point value was observed for COc1cccc(C23CCCC=C2C(=O)N(C)C(=O)C3)c1 (stereo unspecified) ?
139 to 141 °C

Would you mind telling me what melting point value was observed for Brc1cccc(C2Cc3cnc(Nc4ccc(CCN5CCOCC5)cc4)nc3-c3ccccc32)c1 (stereo unspecified) ?
86 to 88 °C

Would you mind telling me what melting point value was observed for CN(C)CCNc1ccc(NCCN(C)C)c2c1C(=O)c1c(O)ccc(O)c1C2=O ?
236 to 238 °C

Would you mind telling me what melting point value was observed for CCCc1cc(Nc2ccn(-c3ccccc3)n2)cc(CCC)c1OC(C)=O ?
71 to 74 °C

Would you mind telling me what melting point value was observed for CCN(CC)c1ccc2cc(N)c(=O)oc2c1 ?
85 to 87 °C

Would you mind telling me what melting point value was observed for OCCN(CCO)CCCNc1nc2cc(Cl)c(Cl)cc2nc1-c1ccccn1 ?
88 to 90 °C

Would you mind telling me what melting point value was observed for COC(=O)C1c2ccccc2C(=O)N(CC(F)(F)F)C1c1cn[nH]c1 (stereo unspecified) ?
161 to 162 °C

Where these numbers come from: a melting point compilation (Tetko et al.; mined from patent text by program, amines drawn as free bases though some values may be those of a salt)
